S. aureus RN4250 (tetracycline efflux, Tet K): recorded MIC for assorted compounds
Express your answer in µg/mL, writing the number without its unit.

Compound: CN(C)c1ccc(O)c2c1C[C@H]1C[C@H]3[C@H](N(C)C)C(O)=C(C(N)=O)C(=O)[C@@]3(O)C(O)=C1C2=O [Minocycline, minocycline]
Unit name: µg/mL
MIC: 0.5

Q. Dear colleague, I am looking for the recorded MIC of the following compound: CN(C)c1cc(NC(=O)CNC(C)(C)C)c(O)c2c1C[C@H]1C[C@H]3[C@H](N(C)C)C(O)=C(C(N)=O)C(=O)[C@@]3(O)C(O)=C1C2=O [Tigecycline, tigecycline]
A. 0.5

----------
Reported half-life values follow for various compounds
# Assay explanation: Pharmacokinetics in nonhuman primates
# Format: in vivo, Cynomolgus monkeys
# Assay setup: cynomolgus monkey, plasma, po, 5 mg/kg
Numeric answer only, unit h assumed.

Compound: CN(C)c1cc(NC(=O)CNC(C)(C)C)c(O)c2c1C[C@H]1C[C@H]3[C@H](N(C)C)C(O)=C(C(N)=O)C(=O)[C@@]3(O)C(O)=C1C2=O
half-life (h): 3.4

Compound: CN(C)c1ccc(O)c2c1C[C@H]1C[C@H]3[C@H](N(C)C)C(O)=C(C(N)=O)C(=O)[C@@]3(O)C(O)=C1C2=O
half-life (h): 7

Proceeding to the next compound to report its half-life.
Q. Fill blank: measured half-life of the compound CN(C)c1cc(CNCC(C)(C)C)c(O)c2c1C[C@H]1C[C@H]3[C@H](N(C)C)C(O)=C(C(N)=O)C(=O)[C@@]3(O)C(O)=C1C2=O is ____.
A. 11.1

----------
# Assay explanation: Pharmacokinetics in nonhuman primates
# Type: in vivo, Cynomolgus monkeys
# Assay setup: cynomolgus monkey, plasma, iv, 5 mg/kg
The entries below are paired with their reported Tmax.
Value expressed in min; do not type the unit.

Molecule: CN(C)c1ccc(O)c2c1C[C@H]1C[C@H]3[C@H](N(C)C)C(O)=C(C(N)=O)C(=O)[C@@]3(O)C(O)=C1C2=O [Minocycline, minocycline]
Tmax, min: 6

Q. # lookup: Tmax of CN(C)c1cc(NC(=O)CNC(C)(C)C)c(O)c2c1C[C@H]1C[C@H]3[C@H](N(C)C)C(O)=C(C(N)=O)C(=O)[C@@]3(O)C(O)=C1C2=O [Tigecycline, tigecycline]
A. 12

----------
Reported MIC values follow for various compounds
# Tested on: E. faecalis JH2-2(pMV158) (tetracycline efflux, Tet L)
# Assay explanation: Microdilution MIC, E. faecalis Tet L
# Assay type: cell-based
# Assay setup: Enterococcus faecalis, read-out: MIC, E. faecalis Tet L

Compound: CN(C)[C@@H]1C(O)=C(C(N)=O)C(=O)[C@@]2(O)C(O)=C3C(=O)c4c(O)cccc4[C@@](C)(O)[C@H]3C[C@@H]12
Reported value: 64 µg/mL
//
Compound: CN(C)c1cc(CNCC(C)(C)C)c(O)c2c1C[C@H]1C[C@H]3[C@H](N(C)C)C(O)=C(C(N)=O)C(=O)[C@@]3(O)C(O)=C1C2=O
Reported value: 0.5 µg/mL
//
Compound: CN[C@H](CC(C)C)C(=O)N[C@H]1C(=O)N[C@@H](CC(N)=O)C(=O)N[C@H]2C(=O)N[C@H]3C(=O)N[C@H](C(=O)N[C@H](C(=O)O)c4cc(O)cc(O)c4-c4cc3ccc4O)[C@H](O)c3ccc(c(Cl)c3)Oc3cc2cc(c3O[C@@H]2O[C@H](CO)[C@@H](O)[C@H](O)[C@H]2O[C@H]2C[C@](C)(N)[C@H](O)[C@H](C)O2)Oc2ccc(cc2Cl)[C@H]1O
Reported value: 1 µg/mL
//
Compound: CN(C)c1ccc(O)c2c1C[C@H]1C[C@H]3[C@H](N(C)C)C(O)=C(C(N)=O)C(=O)[C@@]3(O)C(O)=C1C2=O
Reported value: 0.5 µg/mL

Here's the next entry for you.
Q. Look up MIC for this compound: CN(C)c1cc(NC(=O)CNC(C)(C)C)c(O)c2c1C[C@H]1C[C@H]3[C@H](N(C)C)C(O)=C(C(N)=O)C(=O)[C@@]3(O)C(O)=C1C2=O
A. 0.5 µg/mL
